All figures here come from ChEMBL document CHEMBL1201862.

Test system: BT-549
assay-text: NCI tumour cell line growth inhibition, 48 h
Calls of active or inactive are those of the source. Rule as the data show it: active = GI50 up to about 1.1 µM and inactive = higher.
Please go through the items and note down their GI50.

q: Requested field: GI50. Item: COc1ccc(-c2nc(-c3cnccn3)n(Cc3ccccc3)n2)cc1
a: > 100 µM (inactive)

q: Requested field: GI50. Item: O=C(OCC(Cl)(Cl)Cl)O[C@@H]1CCCC1(c1ccccc1)c1ccccc1
a: > 100 µM (inactive)

q: Requested field: GI50. Item: COc1cc(OC)nc(-n2c(N)c(C(=O)O)c3ccc([N+](=O)[O-])cc3c2=O)n1
a: > 100 µM (inactive)

q: Requested field: GI50. Item: Cc1ncc2c(n1)CCC1=C2OS(=O)(=O)CC1N(C)C (configuration not stated)
a: > 100 µM (inactive)

q: Requested field: GI50. Item: CC1(c2ccc(Cl)cc2)c2ccccc2C(=O)N1CCCN1C(=O)c2ccccc2C1=O (configuration not stated)
a: > 100 µM (inactive)

q: Requested field: GI50. Item: COc1cc(-c2nc3cc(F)ccc3s2)ccc1O
a: 20.6 µM (inactive)

q: Requested field: GI50. Item: O=c1oc2c(ccc3c(O)cccc32)c2c1CCCC2
a: 15.1 µM (inactive)

q: Requested field: GI50. Item: Cc1ccc(S(=O)(=O)OCC(=O)O)cc1
a: > 100 µM (inactive)

q: Requested field: GI50. Item: [N-]=[N+]=NC1C(O)C(CO)OC1n1ccc(=O)[nH]c1=O (configuration not stated)
a: > 875 µM (inactive)

q: Requested field: GI50. Item: N#CC1C(=O)NC(=O)C(C#N)C1c1ccc(Cl)c(Cl)c1 (configuration not stated)
a: 33.3 µM (inactive)

q: Requested field: GI50. Item: COC(=O)C1OC2(CCCC3CC32)O[C@H]1C(=O)OC (some centres not stated)
a: > 100 µM (inactive)

q: Requested field: GI50. Item: [N-]=[N+]=NC1(c2ccccc2)C(=O)c2cccc3c4ccccc4n(c23)C1=O (configuration not stated)
a: > 100 µM (inactive)

----------
Test system: EKVX
assay-text: NCI tumour cell line growth inhibition, 48 h
Calls of active or inactive are those of the source. Rule as the data show it: active = GI50 up to about 1.1 µM and inactive = higher.
# valid calls are T for active, F for inactive; nothing else

q: Which outcome did this test record for the compound Nc1ccn(C2CC3OCC3O2)c(=O)n1 (stereo unspecified) ?
a: F

q: Which outcome did this test record for the compound COc1ccc(-c2cc(O)c3cc4c(cc3n2)OCO4)c(OC)c1 ?
a: F

q: Which outcome did this test record for the compound c1cn(C23C4C5C6C4C2C6C53)cn1 (stereo unspecified) ?
a: F

q: Which outcome did this test record for the compound Cc1cccc(C)c1NC(=O)CCC(=O)/N=C(\N)NC#N ?
a: F

q: Which outcome did this test record for the compound COc1cc(C2C(C(=O)Nc3ccccc3C)=C(C)NC(C)=C2C(=O)Nc2ccccc2C)ccc1O ?
a: F

q: Which outcome did this test record for the compound Cc1nc(C)c(C(=O)NNC(=O)Cc2ccccc2)cc1C(=O)NNC(=O)Cc1ccccc1 ?
a: F

q: Which outcome did this test record for the compound C[C@]12CCC(=O)C=C1CC[C@@H]1[C@@H]2[C@@H](O)C[C@@]2(C)[C@H]1CC[C@]2(O)C(=O)COC(=O)C1CCCC1 ?
a: F

q: Which outcome did this test record for the compound COc1cc2c(c(OC)c1OC)-c1ccc(OC)c(=O)cc1C(NC(=O)COc1ccccc1)CC2 (stereo unspecified) ?
a: T

q: Which outcome did this test record for the compound CNC(=O)C(C)C1CCC2(C)C=CC(=O)C(C)=C2C1O (stereo unspecified) ?
a: F

q: Which outcome did this test record for the compound O=[N+]([O-])c1cccc(/N=N/c2c(O)c(S(=O)(=O)O)cc3cc(S(=O)(=O)O)ccc23)c1 ?
a: F

q: Which outcome did this test record for the compound CNC(=S)NNc1ncnc2c1ncn2-c1ccc(C)cc1 ?
a: F

q: Which outcome did this test record for the compound COc1ccc(Br)c(CN2CCc3ccccc32)c1OS(=O)(=O)c1ccc(C)cc1 ?
a: F

q: Which outcome did this test record for the compound CC(C)=CC1CCc2ccccc2N1S(=O)(=O)c1ccc(C)cc1 (stereo unspecified) ?
a: F

q: Which outcome did this test record for the compound COc1nc(C(=O)NNC(=O)c2nc(OC)c3ccccc3c2-c2ccccc2)c(-c2ccccc2)c2ccccc12 ?
a: F

q: Which outcome did this test record for the compound IC[P+]1(c2ccccc2)CCCC1 ?
a: F

q: Which outcome did this test record for the compound CCN(c1n[n+]2c(-c3ccccc3)csc2s1)c1n[n+]2c(-c3ccccc3)csc2s1 ?
a: F

q: Which outcome did this test record for the compound CC1(C)OC[C@@H]([C@H](O)C2C=CC(=O)S2)O1 (stereo partly specified) ?
a: F

q: Which outcome did this test record for the compound O=C(O)c1ccccc1CC1Cc2ccc3c(c2C1=O)CCC3 (stereo unspecified) ?
a: F

q: Which outcome did this test record for the compound COC(=O)C1=C(O)c2cc3c(cc2[C@H](c2cc(OC)c(OC)c(OC)c2)C1C(=O)OC)OCO3 (stereo partly specified) ?
a: F

q: Which outcome did this test record for the compound FC(F)(F)c1ccc2c(c1)nc(Cc1ccc(Cl)c(Cl)c1)n2CC1CCCN2CCCCC12 (stereo unspecified) ?
a: F

q: Which outcome did this test record for the compound O=C(O)/C=C/c1c[nH]c(=O)[nH]c1=O ?
a: F
